These measurements were taken from PubChem BioAssay.

experiment: inhibitors of TNFa-induced NFkB p65 translocation, primary screen, imaging, HUVEC, MLSMR starter and 10KST1 sets (AID 438); conditions: HUVEC TNFa-induced p65 nuclear translocation; at 2 µM, active compounds read high unless noted;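 also: compound added about 3h40 before a 20 min TNFalpha stimulation; signal is the nuclear over cytoplasmic p65 intensity ratio per well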
recorded-metric: inhibition (%)

> print(dat)
                                   molecule  recorded.metric  reported.result
1  CC(=O)[C@@]1(O)CC[C@H]2[C@@H]3CC=C4C[C@@H](O)CC[C@]4(C)[C@H]3CC[C@@]21C       inhibition            -10.4
2  COc1ccc(CN2CCN(C(=O)Cc3ccccc3)CC2)c(OC)c1       inhibition              2.1
3  O=c1[nH]c(=O)n(Cc2ccccc2)c(O)c1C=NCCN1CCOCC1       inhibition            -25.9
4           Cc1cccc(N2CCc3c2nc2ccccc2c3N)c1       inhibition             -6.5
5  CCn1c(O)c(C(=O)CC2NCCc3ccccc32)c(=O)n(CC)c1=S (stereo not given)       inhibition             -7.2

###

Reported NADPH fluorescence slope values follow for various compounds
target: Voltage-gated potassium channel subunit beta-2 (Rattus norvegicus) (UniProt P62483); assay: enhancers of rat Kvbeta2 NADPH turnover – biochemical, NADPH fluorescence, primary screen (AID 623); conditions: Recombinant KvBeta, NADPH fluorescence decrease slope, 10 min; at 10 µM; active compounds read low;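 also: fluorescence intensity change per second fitted from 20 to 320 s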
Sequence (P62483 whole entry, looked up): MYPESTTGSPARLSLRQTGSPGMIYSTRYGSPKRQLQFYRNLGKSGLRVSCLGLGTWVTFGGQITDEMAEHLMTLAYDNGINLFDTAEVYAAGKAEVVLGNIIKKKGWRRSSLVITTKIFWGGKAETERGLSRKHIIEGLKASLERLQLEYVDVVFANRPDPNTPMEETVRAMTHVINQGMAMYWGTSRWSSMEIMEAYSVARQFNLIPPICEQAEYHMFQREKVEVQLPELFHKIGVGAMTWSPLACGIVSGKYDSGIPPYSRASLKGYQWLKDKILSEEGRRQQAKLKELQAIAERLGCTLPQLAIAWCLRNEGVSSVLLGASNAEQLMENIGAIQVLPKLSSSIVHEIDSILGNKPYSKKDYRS
recorded-metric: NADPH fluorescence slope

> print(dat)
                                    compound           recorded.metric  reported.result
 1                  CC(=O)C1(c2ccccc2)CCNCC1  NADPH fluorescence slope         -4.6e-05
 2         COc1ccc(-n2c(SC)nc3ccccc3c2=O)cc1  NADPH fluorescence slope        -0.000141
 3  CN(C)[C@@H]1C(=O)C(C(N)=O)=C(O)[C@@]2(O)C(=O)C3=C(O)c4c(O)cccc4[C@@](C)(O)[C@H]3C[C@@H]12  NADPH fluorescence slope         -5.8e-05
 4  N=C(N)c1c(O)n(C2CCCCC2)c(=O)n(C2CCCCC2)c1=O  NADPH fluorescence slope         -1.1e-05
 5              CCOP(=S)(OCC)c1ccc(N(C)C)cc1  NADPH fluorescence slope          3.8e-05
 6  O=C(CN1C2CCC1CC(O)(c1cccnc1)C2)Nc1ccc2c(c1)OCO2 (configuration not stated)  NADPH fluorescence slope          5.6e-07
 7          O=C(c1ccco1)C12CN3CN(CN(C3)C1)C2  NADPH fluorescence slope        -0.000115
 8  CC1(C)Cc2c(sc3c2C(=O)NC(c2cccnc2)N3)CO1 (configuration not stated)  NADPH fluorescence slope         -3.1e-05
 9  COCCOC(=O)c1c(N)n(Cc2ccco2)c2nc3ccccc3nc12  NADPH fluorescence slope         -7.2e-06
10        COc1ccc2c(c1)c(C(=O)O)c(C)n2CC(C)C  NADPH fluorescence slope         -3.5e-05
11  CC(=O)[C@@]1(O)CC[C@H]2[C@@H]3CC=C4C[C@@H](O)CC[C@]4(C)[C@H]3CC[C@@]21C  NADPH fluorescence slope         -5.3e-05
12       COc1ccc(CC2C(=O)NC(=O)NC2=O)c(OC)c1  NADPH fluorescence slope          5.3e-05
13  COc1ccc(CCNC(=O)c2c(N)n(CCN3CCOCC3)c3nc4ccccc4nc23)cc1  NADPH fluorescence slope         -7.3e-05
14        CCCCC1(CN2CCCC2=O)C(=O)NC(=O)NC1=O  NADPH fluorescence slope          1.5e-05
15  CSc1ccc(CNC2CN3CCC2CC3)cc1 (configuration not stated)  NADPH fluorescence slope         -9.5e-05
16  C[C@H]1CCC/C=C/C2C[C@H](O)CC2[C@H](O)/C=C/C(=O)O1 (some centres not stated)  NADPH fluorescence slope         -3.1e-05
17  COC(=O)C1C2c3ccccc3OC1(C)N=c1s/c(=C/c3cnn(C)c3C)c(=O)n12 (configuration not stated)  NADPH fluorescence slope         -4.9e-05
18  Cc1c(N=Cc2c(O)n(CCc3ccc(F)cc3)c(=O)[nH]c2=O)c(=O)n(-c2ccccc2)n1C  NADPH fluorescence slope         -4.5e-05
19          CCCCc1nc2ccccc2c(=O)n1-c1ccccc1O  NADPH fluorescence slope          5.8e-06
20  CCCCn1c(O)c(C(CC)=Nc2cccc(C(=O)O)c2)c(=O)[nH]c1=O  NADPH fluorescence slope          2.4e-05
21  Clc1ccc(COC(Cn2ccnc2)c2ccc(Cl)cc2Cl)cc1 (configuration not stated)  NADPH fluorescence slope          4.6e-06
22  CN(C)[C@@H]1C(=O)C(C(N)=O)=C(O)[C@@]2(O)C(=O)C3=C(O)c4c(O)cccc4[C@@](C)(O)[C@H]3[C@H](O)[C@@H]12  NADPH fluorescence slope         -9.9e-05
23  C=CCOC(=O)C1=C(C)OC(N)=C(C#N)[C@@]12C(=O)N(CC(N)=O)c1ccccc12  NADPH fluorescence slope         -5.7e-05
24  COc1ccc(C2SCC(=O)Nc3c2c(=O)[nH]n3C2CCCCCC2)cc1OC (configuration not stated)  NADPH fluorescence slope         -4.2e-05
25           O=P(c1ccccc1)(c1ccccc1)N1CCCCC1  NADPH fluorescence slope          1.4e-05
26           C[C@H]1OC[C@@H](C[N+](C)(C)C)O1  NADPH fluorescence slope         -5.9e-05
27  CCN(CC)CCN=Cc1c(O)n(CCC2=CCCCC2)c(=O)[nH]c1=O  NADPH fluorescence slope         -1.2e-05
28  CCN(CC)CCCC(C)N=C(c1ccccc1)c1c(O)n(C)c(=O)n(C)c1=O (configuration not stated)  NADPH fluorescence slope         -7.1e-05
29  COC(=O)C(O)(c1ccc(NC(=O)c2ccco2)c(OC)c1)C(F)(F)F (configuration not stated)  NADPH fluorescence slope         -5.3e-05
30  CCN1c2nc3c(C)cccn3c(=O)c2CC2(C(=O)N(C)C(=O)N(C)C2=O)C1C (configuration not stated)  NADPH fluorescence slope         -5.3e-05
31  CC(C)[C@@]1(NC(=O)[C@@H]2C[C@@H]3c4cccc5[nH]cc(c45)C[C@H]3N(C)C2)O[C@@]2(O)[C@@H]3CCCN3C(=O)[C@H](Cc3ccccc3)N2C1=O  NADPH fluorescence slope         -3.7e-05
32  CN1C(=O)N(C)C(=O)C2(Cc3ccccc3N3CCOCC32)C1=O (configuration not stated)  NADPH fluorescence slope          3.8e-05
33  CCN(CC)CCN=Cc1c(O)n(CCc2ccccc2)c(=O)[nH]c1=O  NADPH fluorescence slope          9.5e-06
34                    Cc1cnn(C2CCN(C)CC2)c1N  NADPH fluorescence slope          1.3e-05
35  CCOc1ccccc1-n1c(O)c(C=Nc2ccc(N(CC)CC)cc2)c(=O)[nH]c1=O  NADPH fluorescence slope         -9.6e-06
36  CC(=NCCCO)c1c(O)n(Cc2ccccc2)c(=O)[nH]c1=O  NADPH fluorescence slope         -3.6e-05
37  COC(=O)C(O)(c1c[nH]c2ccccc12)C(F)(F)F (configuration not stated)  NADPH fluorescence slope          1.2e-05
38  CCOc1c(P(=S)(N(C)C)N(C)C)c(C)nn1-c1ccccc1  NADPH fluorescence slope            8e-06
39    O=c1[nH]c(=O)n(Cc2ccccc2)c(O)c1C=NCCCO  NADPH fluorescence slope           -3e-05
40  COc1ccc(CCn2c(O)c(C=NCc3cccnc3)c(=O)[nH]c2=O)cc1OC  NADPH fluorescence slope          1.1e-05
41  CCC(=NCC1CCCO1)c1c(O)n(Cc2ccccc2)c(=O)[nH]c1=O (configuration not stated)  NADPH fluorescence slope         -5.3e-05
42  CCCCn1c(O)c(C(C)=NC(Cc2c[nH]c3ccccc23)C(=O)OC)c(=O)[nH]c1=O (configuration not stated)  NADPH fluorescence slope          1.8e-05
